test system: cancer stem cells (CSC) derived from four glioblastoma patients; assay: Cytotoxicity in cancer stem cells from glioblastoma patients; format: cell-based, human; details: CSC GBM #6, 24 h; read-out: Cytotoxicity EC50 24 h
endpoint-label: EC50
Answer format: number, then unit.

Query string: Please report EC50 with cancer stem cells (CSC) derived from four glioblastoma patients for item Cn1nnc2c(C(N)=O)ncn2c1=O [temozolamide] .
Result string: 230 µM

---

tested on: cancer stem cells (CSC) derived from four glioblastoma patients; test: Cytotoxicity in cancer stem cells from glioblastoma patients; format: cell-based, human; settings: CSC GBM #4, 24 h; read-out: Cytotoxicity EC50 24 h
endpoint-label: EC50

Query string: State its EC50: Cn1nnc2c(C(N)=O)ncn2c1=O [temozolamide]
Result string: 500 µM
